Source of measurements: ChEMBL document CHEMBL1201862

# SYSTEM_TESTED: Sentrin-specific protease 8 (Homo sapiens, UniProt Q96LD8)
# Sequence (Q96LD8 whole entry): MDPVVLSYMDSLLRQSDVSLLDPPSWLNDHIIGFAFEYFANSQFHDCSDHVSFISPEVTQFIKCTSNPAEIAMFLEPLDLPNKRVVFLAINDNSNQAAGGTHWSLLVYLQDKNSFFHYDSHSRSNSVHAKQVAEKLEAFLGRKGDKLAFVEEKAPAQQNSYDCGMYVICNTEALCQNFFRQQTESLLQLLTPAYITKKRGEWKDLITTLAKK
# Type: functional
Active and inactive are the calls of the source.
MEASURED_PROPERTY: IC50

# input Enter reported IC50 observed with Sentrin-specific protease 8 (Homo sapiens, UniProt Q96LD8) for Cc1nn(-c2ccc(Cl)cc2)c(O)c1C(c1ccccc1O)c1c(C)[nH]n(-c2ccc(Cl)cc2)c1=O (centres undefined)
# output 8.38 µM (active)

# input Enter reported IC50 observed with Sentrin-specific protease 8 (Homo sapiens, UniProt Q96LD8) for COC/C=C/C1=CC2=CC(=O)C(C)(OC(=O)c3cnc4ccccc4n3)C(=O)C2=CN1CCCOC(C)C (centres undefined)
# output 19.9 µM (active)

# input Enter reported IC50 observed with Sentrin-specific protease 8 (Homo sapiens, UniProt Q96LD8) for O=C1CC(c2ccccc2)=NN1c1ccc([N+](=O)[O-])cc1
# output 33.2 µM (active)

# input Enter reported IC50 observed with Sentrin-specific protease 8 (Homo sapiens, UniProt Q96LD8) for O=C1NC(=O)C(Nc2ccccc2)C(=O)N1
# output 22.5 µM (active)

====

Provide the recorded EC50 for the entries that follow.
# SYSTEM_TESTED: Peroxisome proliferator-activated receptor gamma/Nuclear receptor coactivator 3 (Homo sapiens, UniProt P37231);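 further: agonist potency for raising coactivator recruitment to the receptor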
# Sequence (P37231 whole entry): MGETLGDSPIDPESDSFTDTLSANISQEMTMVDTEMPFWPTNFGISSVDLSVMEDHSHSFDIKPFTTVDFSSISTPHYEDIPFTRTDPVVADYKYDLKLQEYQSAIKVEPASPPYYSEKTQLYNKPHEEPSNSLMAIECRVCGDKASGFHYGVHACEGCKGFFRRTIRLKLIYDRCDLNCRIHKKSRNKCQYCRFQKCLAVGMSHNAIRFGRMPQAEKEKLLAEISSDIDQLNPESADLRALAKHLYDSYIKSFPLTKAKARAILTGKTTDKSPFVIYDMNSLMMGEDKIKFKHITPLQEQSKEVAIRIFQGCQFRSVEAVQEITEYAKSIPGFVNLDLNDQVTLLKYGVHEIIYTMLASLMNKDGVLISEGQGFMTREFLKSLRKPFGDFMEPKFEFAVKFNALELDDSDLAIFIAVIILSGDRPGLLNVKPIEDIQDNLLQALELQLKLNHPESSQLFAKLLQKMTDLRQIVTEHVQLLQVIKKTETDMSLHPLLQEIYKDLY
# Sequence (Q9Y6Q9 whole entry, further chain): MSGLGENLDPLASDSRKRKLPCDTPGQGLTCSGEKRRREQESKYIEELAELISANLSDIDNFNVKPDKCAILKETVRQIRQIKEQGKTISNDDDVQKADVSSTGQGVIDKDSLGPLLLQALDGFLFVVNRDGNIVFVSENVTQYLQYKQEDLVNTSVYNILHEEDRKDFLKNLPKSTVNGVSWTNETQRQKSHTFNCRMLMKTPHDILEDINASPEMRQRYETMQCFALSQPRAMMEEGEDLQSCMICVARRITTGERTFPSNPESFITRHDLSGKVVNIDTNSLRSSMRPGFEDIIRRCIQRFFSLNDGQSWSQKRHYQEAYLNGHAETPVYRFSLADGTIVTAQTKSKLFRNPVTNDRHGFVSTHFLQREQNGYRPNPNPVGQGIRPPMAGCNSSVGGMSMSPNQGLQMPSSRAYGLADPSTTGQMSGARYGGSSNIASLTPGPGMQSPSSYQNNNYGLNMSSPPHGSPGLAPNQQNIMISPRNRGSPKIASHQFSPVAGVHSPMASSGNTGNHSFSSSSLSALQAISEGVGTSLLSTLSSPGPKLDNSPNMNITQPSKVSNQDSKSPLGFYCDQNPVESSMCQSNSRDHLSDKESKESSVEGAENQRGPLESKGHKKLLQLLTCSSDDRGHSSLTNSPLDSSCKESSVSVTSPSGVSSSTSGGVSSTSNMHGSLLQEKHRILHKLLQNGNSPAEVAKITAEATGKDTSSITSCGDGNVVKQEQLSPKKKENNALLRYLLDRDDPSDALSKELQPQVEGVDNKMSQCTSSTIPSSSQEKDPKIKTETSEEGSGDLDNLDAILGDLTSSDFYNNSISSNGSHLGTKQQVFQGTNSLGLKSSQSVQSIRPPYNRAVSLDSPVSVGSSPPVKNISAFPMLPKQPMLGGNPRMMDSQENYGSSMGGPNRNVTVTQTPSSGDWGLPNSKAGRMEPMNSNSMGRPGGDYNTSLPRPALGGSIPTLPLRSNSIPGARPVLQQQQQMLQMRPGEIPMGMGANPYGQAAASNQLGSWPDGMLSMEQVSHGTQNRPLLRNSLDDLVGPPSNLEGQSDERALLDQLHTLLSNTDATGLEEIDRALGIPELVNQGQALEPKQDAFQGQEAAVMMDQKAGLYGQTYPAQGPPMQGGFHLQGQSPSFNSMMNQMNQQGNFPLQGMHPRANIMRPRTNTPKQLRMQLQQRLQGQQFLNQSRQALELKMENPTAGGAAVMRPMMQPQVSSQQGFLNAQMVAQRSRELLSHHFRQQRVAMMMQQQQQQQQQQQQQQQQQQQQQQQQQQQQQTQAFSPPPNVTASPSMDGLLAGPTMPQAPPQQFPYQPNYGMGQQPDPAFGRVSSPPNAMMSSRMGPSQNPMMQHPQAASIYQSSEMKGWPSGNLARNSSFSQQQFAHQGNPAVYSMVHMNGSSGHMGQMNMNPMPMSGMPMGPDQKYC
# Type: functional

# input Could you share which EC50 value was measured for CC(C)(C)c1cc(C(=S)N2CCN(CCO)CC2)cc(C(C)(C)C)c1O ?
# output > 79.4 µM (not active)

# input Could you share which EC50 value was measured for Cc1ccc(CNC(=O)COc2ccc(C(=O)c3ccc(F)cc3)cc2)cc1 ?
# output > 79.4 µM (not active)

# input Could you share which EC50 value was measured for COc1ccc(-c2c(C#N)c(C)nc3c2C(=O)c2ccccc2-3)cc1 ?
# output 48.3 µM (not active)

# input Could you share which EC50 value was measured for CCOC(=O)Cn1/c(=N/C(=O)c2sc3ccccc3c2Cl)sc2cc(S(N)(=O)=O)ccc21 ?
# output 14.3 µM (not active)

# input Could you share which EC50 value was measured for Cc1nn(-c2ccc(Cl)cc2)c2sc(C(=O)c3c(N)n(C)c(=O)n(C)c3=O)cc12 ?
# output 33.3 µM (not active)

# input Could you share which EC50 value was measured for N#Cc1c(N)nc(SCC(=O)NC2CCCCC2)c(C#N)c1-c1ccc(Cl)cc1 ?
# output 37.1 µM (not active)

====

# ASSAY_EXPLANATION: Late stage assay provider results from the probe development effort to identify inhibitors of Protein Phosphatase Methylesterase 1 (PME-1): luminescence-based biochemical dose response assay to determine cytotoxicity of inhibitor compounds. [Related pubchem assays (depositor defined):AID2130, AID2143, AID2171, AID2174, AID2177, AID2232, AID2233, AID2291, AID2363, AID2365, AID2366, AID2368, AID2369, AID2371, AID463124, AID463130, AID463131, AID463132, AID463146, AID463149] Panel member name: Fetal Calf Serum
# Assay type: toxicity
The source made the active and inactive calls.
MEASURED_PROPERTY: CC50

# input Could you share which CC50 value was measured for CCOC(=O)N1C(=O)[C@@](c2ccc(Cl)cc2)(C(C)C)N1C(=O)OCC ?
# output > 10 µM (inactive)
